- STUDY TARGET: DDR2 (Homo sapiens)
- Construct: purchased Nanosyn (contract screening)
- Sequence (Q16832 22-855): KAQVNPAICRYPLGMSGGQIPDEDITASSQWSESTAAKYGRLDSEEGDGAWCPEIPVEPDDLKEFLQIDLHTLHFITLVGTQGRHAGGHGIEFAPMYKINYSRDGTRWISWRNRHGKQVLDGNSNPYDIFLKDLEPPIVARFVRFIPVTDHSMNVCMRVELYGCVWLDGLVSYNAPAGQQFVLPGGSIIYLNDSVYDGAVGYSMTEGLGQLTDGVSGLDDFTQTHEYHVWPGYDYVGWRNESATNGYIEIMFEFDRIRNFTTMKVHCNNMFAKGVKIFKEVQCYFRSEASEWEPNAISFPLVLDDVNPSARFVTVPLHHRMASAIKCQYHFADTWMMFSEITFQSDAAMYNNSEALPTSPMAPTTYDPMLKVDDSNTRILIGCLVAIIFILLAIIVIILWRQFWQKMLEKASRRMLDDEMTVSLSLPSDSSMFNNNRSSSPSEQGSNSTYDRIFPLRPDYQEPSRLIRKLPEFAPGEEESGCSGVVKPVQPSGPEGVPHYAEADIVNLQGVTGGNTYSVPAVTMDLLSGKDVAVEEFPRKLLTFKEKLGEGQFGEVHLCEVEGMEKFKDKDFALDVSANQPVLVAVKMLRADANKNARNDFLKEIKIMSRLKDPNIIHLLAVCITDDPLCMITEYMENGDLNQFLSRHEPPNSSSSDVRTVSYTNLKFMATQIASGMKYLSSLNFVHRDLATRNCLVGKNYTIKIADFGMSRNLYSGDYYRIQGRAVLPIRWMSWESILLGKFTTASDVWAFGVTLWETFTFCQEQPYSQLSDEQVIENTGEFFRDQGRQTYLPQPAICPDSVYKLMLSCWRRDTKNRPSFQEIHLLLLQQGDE
- MEASUREMENT NOTES: Kinase panel enzymatic inhibition assay (Nanosyn)
- Assay type: biochemical
- RUN PARAMETERS: compound 5 μM; ATP at Km; 30-minute pre-incubation
REPORTED METRIC: inhibition at 5 µM

COMPOUND: Cc1ccc(NC(=O)c2cc([S+](C)[O-])n(-c3ccc(F)cc3)n2)cc1C#Cc1cnc2cccnn12 (stereo not shown)
STUDY TARGET: DDR2 (Homo sapiens)
inhibition at 5 µM: < 79%

COMPOUND: CCOC(=O)Nc1cn2nc(Nc3cc(NC(=O)c4cc([S+](C)[O-])n(-c5ccc(F)cc5)n4)ccc3C)ccc2n1 (stereo not shown)
STUDY TARGET: DDR2 (Homo sapiens)
inhibition at 5 µM: ≥ 95%

Record inhibition at 5 µM for all entries; do not skip any.
1. CNC(=O)c1cc(Oc2ccc(F)c(NC(=O)c3cc([S+](C)[O-])n(-c4ccc(F)cc4)n3)c2)ccn1 (stereo not shown)
2. Cc1ccc(NC(=O)c2cc(S(C)(=O)=O)n(-c3ccc(F)cc3)n2)cc1Nc1ccc2ncn(C)c(=O)c2c1
3. Cc1ccc(NC(=O)c2cc([S+](C)[O-])n(-c3ccc(F)cc3)n2)cc1Nc1ccc2ncn(C)c(=O)c2c1 (stereo not shown)
4. Cc1ccc(NC(=O)c2cc(S(C)(=O)=O)n(-c3ccc(F)cc3)n2)cc1C#Cc1cnc2cccnn12
5. Cc1ccc(NC(=O)c2cc(S(C)(=O)=O)n(-c3ccc(F)cc3)n2)cc1-c1cc(OCCO)nc(N2CCOCC2)c1

1. < 79%
2. ≥ 95%
3. < 79%
4. ≥ 95%
5. 90 to 94%
